- ASSAY: microbe, parasite or virus in culture
- MEASUREMENT CONDITIONS: Mycobacterium tuberculosis, 96 h, read-out: pIC50 (converted)
MEASURED QUANTITY: IC50 (µM)
Write the answer as a number in µM, unit excluded.

# compound "Cc1ccc(Oc2cc(F)ccc2O[C@@H]2CCC[C@@H](N)[C@H]2O)cc1" ; its IC50 = 47.8

# compound "O=C(Cn1cc(Br)cn1)Nc1ccc2c(c1)OCCO2" ; its IC50 = 247

# compound "COC(=O)[C@H](C)NC(=O)c1cc(-c2cccc(Cl)c2)no1" ; its IC50 = 26

====

IC50 overview
- ASSAY: In vitro enzyme assay to detect hydrolysis of chlorophenol red-beta-D-[…] directly proportional to the number of Toxoplasma stably expressing beta-galactosidase
- Type: functional, organism-based, Toxoplasma gondii
- MEASUREMENT CONDITIONS: Toxoplasma gondii
Write the answer as a number in µM, unit excluded.

# compound "CCn1nc(C)c2nc(C(C)C)nc(NCC(C)C)c21" ; its IC50 = 25.4

# compound "Cn1nc2c(cc1=O)CN(c1ncnc3sccc13)CC2" ; its IC50 = 9.58
